ASSAY PROTOCOL: AUC in cynomolgus monkey at 1 mg/kg, po
Type: ADME, organism-based, Macaca fascicularis
Set-up: dose 1 mg/kg, route oral
APPLIED CONDITIONS: plasma

- MOLECULE SMILES: "Cc1cc[n+]([O-])c(C)c1C(=O)N1CCC(C)(N2CCC(N(c3ccccc3)c3cccnc3)CC2)CC1"
  AUC, µg·h/mL: 0.503

====

ASSAY PROTOCOL: Tmax in po dosed rat
Assay type: ADME, organism-based
APPLIED CONDITIONS: in vivo
READOUT KIND: Tmax (min)

- MOLECULE SMILES: "Cc1cc[n+]([O-])c(C)c1C(=O)N1CCC(C)(N2CCC(N(c3ccccc3)c3cccnc3)CC2)CC1"
  READOUT KIND: "Tmax"
  READING UNIT: "min"
  ENDPOINT VALUE: 24

Reference source: ChEMBL document CHEMBL1141522
